# Test system: MDA-MB-468 breast
# ASSAY NAME: NCI-60 one-dose screen, 48 h
# CONDITION INFO: 10 µM unless noted
# Procedure: Growth inhibition of the MDA-MB-468 human Breast tumor cell line is measured as a screen for anti-cancer activity. Cells are grown in 96 well plates and exposed to the test compound for 48 hours. Compounds are tested at a single concentration, which is 10^-5 M for most compounds. The reported endpoint is percent growth (GI% or GIPRCNT), where numbers from 0 - 100% represent growth inhibition, and numbers from -100% - 0 represent cell death. […]
This is part of a sample that, as a whole, favours compounds with a hit. Of some 83,000 tested, about 20% had one in any assay. Activity calls are given as the source filed them. The calls were made as follows: active = growth percent below 10; inactive = the rest.
Hi there, use one of these labels in your reply, thanks! yes (1) for active, no (0) for inactive

Here are 6 compounds together with their reported answers.
>  <COMPOUND>
CC(=O)Nc1ccc(S(=O)(=O)n2ccc(-c3ccc4c(c3)CCC(C)(C)O4)n2)cc1

>  <LABEL CLASS>
no (0)

$$$$
>  <COMPOUND>
COc1ccc(C2SC(C)C(=O)N2CCc2cccs2)cc1OC (stereo not drawn)

>  <LABEL CLASS>
no (0)

$$$$
>  <COMPOUND>
COc1cc2oc(-c3cccc(C(=O)Nc4ccc(Cl)cc4)c3)cc(=O)c2c(OC)c1OC

>  <LABEL CLASS>
no (0)

$$$$
>  <COMPOUND>
CCN(CC)c1ccc(CNc2ccnc3ccccc23)cc1

>  <LABEL CLASS>
yes (1)

$$$$
>  <COMPOUND>
CCOC(=O)C(=CNc1ccccc1[N+](=O)[O-])C(=O)OCC

>  <LABEL CLASS>
no (0)

$$$$
>  <COMPOUND>
Clc1nc2ccccc2nc1-c1nnc(C2CCCCC2)o1

>  <LABEL CLASS>
yes (1)

$$$$

// query Outcome? COc1ccc(/C=N\NC(=O)c2ccc3nc(-c4ccc(Cl)cc4)[nH]c3c2)cc1
// result no (0)

// query Outcome? CCc1cccc(Cl)c1
// result no (0)

// query Outcome? NS(=O)(=O)c1cccc(Nc2nc(SCC(=O)c3ccc(Cl)cc3)nc3c2CCC3)c1
// result no (0)

// query Outcome? Cc1c2c[n+](C(C)C)ccc2c(C)c2c1[nH]c1ccccc12
// result yes (1)

// query Outcome? Cc1nc2sc(C(=O)Nc3cccc(Br)c3)c(N)c2cc1C(O)c1ccccc1 (stereo not drawn)
// result no (0)

// query Outcome? CN1CCN(CCCOc2ccc3ncnc(Nc4ccc(Oc5cccc(F)c5)c(Cl)c4)c3c2)CC1
// result yes (1)

// query Outcome? COc1ccc(-c2cc(-c3ccc(OC)c(OC)c3)nc(SCCCCCC(=O)NO)n2)cc1
// result no (0)

// query Outcome? CNC(=O)c1[nH]cc(-c2ccccc2)c1-c1cc(OC)c2c(c1OC)OCO2
// result no (0)

// query Outcome? S=C1CC(=S)NC(=S)N1
// result no (0)

// query Outcome? NC(=S)N/N=C(/C=C/c1cn(-c2ccccc2)nc1-c1ccc(Cl)cc1)c1cc2ccccc2oc1=O
// result no (0)

// query Outcome? CCOC(=O)CC(C)=N
// result no (0)

// query Outcome? NC(=Nc1ccccc1)SCCCCSC(N)=Nc1ccccc1
// result no (0)

// query Outcome? N[C@H](CS)C(=O)O
// result no (0)

// query Outcome? Cc1ccccc1C(c1ccccc1)c1ccccc1C
// result no (0)

// query Outcome? O=C1C[C@@H](c2ccccc2)Oc2c(Cc3ccccc3O)c(O)c(Cc3cc(Cc4cc(Cc5ccccc5O)ccc4O)ccc3O)c(O)c21
// result no (0)

// query Outcome? COc1cc2c(c(OC)c1OC)CCC(c1cccc(C(=O)Nc3ccc([N+](=O)[O-])cc3)c1)O2 (stereo not drawn)
// result no (0)

// query Outcome? CCOC(=O)c1n[nH]n2c1nc(=O)c1cnn(C)c12
// result no (0)

---

# System: SNB-75 CNS
# ASSAY NAME: NCI-60 one-dose screen, 48 h (100 = growth as untreated, 0 = no growth, -100 = all killed)
# CONDITION INFO: 10 µM
Compounds without any hit were thinned out: in the full panel of roughly 83,000, 20% have a hit.
QUANTITY MEASURED: growth (%)
Just the number in %, nothing appended.

Some solved cases for reference:
>  <COMPOUND>
COc1ccc(NCc2cn(-c3ccc(C(=O)O)cc3)nc2-c2ccc(F)cc2)cc1C(F)(F)F

>  <growth [%]>
79.1

$$$$
>  <COMPOUND>
COc1ccc(-n2c(SCC(=O)NNS(=O)(=O)c3ccccc3)nc3ccc(Cl)cc3c2=O)cc1

>  <growth [%]>
98.7

$$$$

Observed growth, SNB-75 CNS, COc1ccc(C2OC[C@@]3(C)C4CC[C@]5(C)C(CC=C6C7CC(C)(C)CC[C@]7(C(=O)O)CC[C@]65C)[C@@]4(C)C[C@@H](O)[C@@H]3O2)cc1 (some centres undefined) : 97

Observed growth, SNB-75 CNS, O=C(c1ccccc1)c1ccc2nc(-c3ccccc3Br)[nH]c2c1 : -41.9

Observed growth, SNB-75 CNS, O=C(CN1CCN(c2ncnc3c2cnn3-c2ccccc2)CC1)Nc1ccc(Br)cc1 : 80.9

Observed growth, SNB-75 CNS, COc1ccc(OC)c(-n2cc(C#N)c(N)c2C(=O)c2ccc(Cl)cc2Cl)c1 : -7.62

Observed growth, SNB-75 CNS, Cn1cc(-c2nnc(N)nc2-c2c[nH]c3ccc(F)cc23)c2cc(Br)cnc21 : 59.1

---

# Test system: MDA-MB-468 breast
# ASSAY NAME: NCI-60 one-dose screen, 48 h (100 = growth as untreated, 0 = no growth, -100 = all killed)
# CONDITION INFO: 10 µM unless noted
This is part of a sample that, as a whole, favours compounds with a hit. Of some 83,000 tested, about 20% had one in any assay.
QUANTITY MEASURED: growth (%)
Just the number in %, nothing appended.

>  <COMPOUND>
CCOC(=O)Nc1ccc2nc(-c3cscn3)[nH]c2c1

>  <growth / %>
-2.03

$$$$
>  <COMPOUND>
COc1ccc(-c2nn(-c3ccc(NC(=O)c4ccc(Cl)c(C(F)(F)F)c4)cc3)cc2-c2ccncc2)cc1Cl

>  <growth / %>
9.51

$$$$
>  <COMPOUND>
Cn1cc(-c2nn3cc(-c4ccncc4)nc3s2)c2cc(Br)ccc21

>  <growth / %>
74.9

$$$$
>  <COMPOUND>
CC1CCC(C(C)(C)[N+](C)(C)C)CC1 (stereo not given)

>  <growth / %>
120

$$$$
>  <COMPOUND>
CCN(CCCCCCCCCCN1CC(=O)N(CCCCCCCCCCN(CC)Cc2ccccc2OC)CC1=O)Cc1ccccc1OC

>  <growth / %>
-87.8

$$$$
>  <COMPOUND>
COc1cc2ncnc(Nc3ccc(S(=O)(=O)Nc4cc(C)on4)cc3)c2cc1OCCCN1CCOCC1

>  <growth / %>
103

$$$$

Note to self: growth recorded for O=C(Nc1cccnc1Nc1ccc(Cl)cc1)c1cn(Cc2cccc(Oc3ccccc3)c2)nn1 was 63.3

Note to self: growth recorded for Clc1ccc(OCc2nc(-c3ccccc3)n[nH]2)c(Cl)c1 was 99.1

Note to self: growth recorded for CC(=O)Nc1c(I)c(NC(C)=O)c(I)c(C(=O)O)c1I was 115

Note to self: growth recorded for COc1ccc(/C=C2\CCCC3=C2NC(N)=NC3c2ccc(OC)cc2)cc1 (stereo not given) was -5.61

---

# Test system: MDA-MB-468 breast
# ASSAY NAME: NCI-60 one-dose screen, 48 h (100 = growth as untreated, 0 = no growth, -100 = all killed)
# CONDITION INFO: 10 µM unless noted
# Experimental: Growth inhibition of the MDA-MB-468 human Breast tumor cell line is measured as a screen for anti-cancer activity. Cells are grown in 96 well plates and exposed to the test compound for 48 hours. Compounds are tested at a single concentration, which is 10^-5 M for most compounds. The reported endpoint is percent growth (GI% or GIPRCNT), where numbers from 0 - 100% represent growth inhibition, and numbers from -100% - 0 represent cell death. […]
About 83,000 compounds went through this panel and 20% of them were active in at least one assay; those are over-represented in the sample as a whole.
QUANTITY MEASURED: growth (%)
Just the number in %, nothing appended.

>  <COMPOUND>
CCN1C(=O)N(CC)C2Nn3c(s/c(=C4\C(=O)Nc5ccccc54)c3=O)=NC21 (stereo not drawn)

>  <SYSTEM UNDER TEST>
MDA-MB-468 breast

>  <growth / %>
5.05

$$$$
>  <COMPOUND>
N[C@@H](CO)C(=O)O

>  <SYSTEM UNDER TEST>
MDA-MB-468 breast

>  <growth / %>
103

$$$$
>  <COMPOUND>
CN1C(=O)NC(c2ccc3c(c2)OCO3)C=C1c1ccccc1 (stereo not drawn)

>  <SYSTEM UNDER TEST>
MDA-MB-468 breast

>  <growth / %>
98.2

$$$$
>  <COMPOUND>
N#CC1=C2NCCCNc3oc(nc3C#N)Cc3ccccc3CC(=N1)O2

>  <SYSTEM UNDER TEST>
MDA-MB-468 breast

>  <growth / %>
75.1

$$$$
>  <COMPOUND>
S=c1c2ncccc2c(-c2ccccn2)nn1Cc1ccccn1

>  <SYSTEM UNDER TEST>
MDA-MB-468 breast

>  <growth / %>
111

$$$$
>  <COMPOUND>
COc1cc(C(F)(F)F)ccc1-c1cc(-c2ccc(F)cc2)n[nH]1

>  <SYSTEM UNDER TEST>
MDA-MB-468 breast

>  <growth / %>
75.6

$$$$
>  <COMPOUND>
O=C1Nc2ccc(Cl)cc2/C1=C\c1c(-c2ccc(F)cc2)nc2ccccn12

>  <SYSTEM UNDER TEST>
MDA-MB-468 breast

>  <growth / %>
-13.6

$$$$
>  <COMPOUND>
CCCCCCCCCCCCCCn1c2ccccc2c2c3c(c4c5cc(OC)ccc5oc4c21)C(=O)NC3=O

>  <SYSTEM UNDER TEST>
MDA-MB-468 breast

>  <growth / %>
106

$$$$

Note to self: growth recorded for COc1cccc(-c2nc3sccn3c2-c2ccnc(NCCN3CCCN(C)S3(=O)=O)n2)c1 was 75.6

Note to self: growth recorded for COc1cc(C2CC(c3ccc(C)cc3)=NN2C=O)ccc1OCCN(C)C (stereo not drawn) was 93.1

Note to self: growth recorded for O=C1S/C(=C\c2ccc([N+](=O)[O-])cc2)C(=O)N1CCN1CCCCC1 was 99.5

Note to self: growth recorded for CCOC(=O)c1cn2ncnc(Oc3ccc(NC(=O)NCCN4CCOCC4)c(Cl)c3)c2c1C was 85.1

Note to self: growth recorded for O=C(Nc1cnc(Nc2ccc(N3CCOCC3)nc2)nc1Oc1ccc(C(F)(F)F)cc1)c1ccncc1 was 103

Note to self: growth recorded for COc1ccc2c3c([nH]c2c1)C(=O)c1nc(C)ccc1C3=O was 14.8
